target: Sigma intracellular receptor 2 (Homo sapiens); experiment: Displacement of [3H]-DTG from the Sigma2 receptor
Sequence (Q5BJF2 whole entry): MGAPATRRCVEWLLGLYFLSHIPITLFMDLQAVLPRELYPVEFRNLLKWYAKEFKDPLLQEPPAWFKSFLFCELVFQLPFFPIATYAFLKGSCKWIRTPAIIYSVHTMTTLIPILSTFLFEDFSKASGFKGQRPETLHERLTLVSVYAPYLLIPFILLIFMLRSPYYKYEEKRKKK
pKi: −log10 of the molar value.
Each item that follows carries a reported pKi.
MEASUREMENT_TYPE: pKi

COMPOUND: CCN(CCO)CCCC(C)Nc1ccnc2cc(Cl)ccc12 (stereo not drawn) [HYDROXYCHLOROQUINE]
MEASUREMENT_TYPE: pKi
NUMERIC_RESULT: 6.00
//
COMPOUND: CCN(CC)CCCC(C)Nc1ccnc2cc(Cl)ccc12 (stereo not drawn)
MEASUREMENT_TYPE: pKi
NUMERIC_RESULT: 6.30
//
COMPOUND: CCCN1CCC=C(c2cc(-c3ccc(C)cc3)no2)C1
MEASUREMENT_TYPE: pKi
NUMERIC_RESULT: 6.10

* * *

test: Cytotoxicity of compound against Vero E6 cells by MTT assay.; conditions: chlorocebus sabaeus, Vero E6 cells
Active and inactive are the calls of the source. The rule behind the calls is not given here.
Each item that follows carries a reported CC50.

MOLECULE: COC(=O)C1(c2ccc(C)cc2)CC1CN1CCC(O)(c2ccccc2)CC1 (configuration not stated)
CC50: ~4000 nM (inactive)
//
MOLECULE: CN(C)C(=N)N=C(N)N
CC50: ~33600 nM
//
MOLECULE: CO[C@H]1C[C@@H]2CC[C@@H](C)[C@@](O)(O2)C(=O)C(=O)N2CCCC[C@H]2C(=O)O[C@H]([C@H](C)C[C@@H]2CC[C@@H](O)[C@H](OC)C2)CC(=O)[C@H](C)/C=C(\C)[C@@H](O)[C@@H](OC)C(=O)[C@H](C)C[C@H](C)/C=C/C=C/C=C/1C
CC50: ~0.479 nM
//
MOLECULE: COc1ccc2c(c1)[C@]13CCCC[C@@H]1[C@H](C2)N(C)CC3
CC50: ~871 nM
//
MOLECULE: COc1cc(OC)c2c(=O)[nH]c(-c3cc(C)c(OCCO)c(C)c3)nc2c1
CC50: ~207 nM (inactive)
//
MOLECULE: CN(C)C(=O)COC(=O)Cc1ccc(OC(=O)c2ccc(NC(=N)N)cc2)cc1
CC50: ~3630 nM (inactive)
//
MOLECULE: Cc1sc2c(c1C)C(c1ccc(Cl)cc1)=N[C@@H](CC(=O)OC(C)(C)C)c1nnc(C)n1-2
CC50: ~66.8 nM

* * *

system: Vero C1008; experiment: Cytotoxicity of compound against Vero E6 cells by MTT assay.; settings: chlorocebus sabaeus, vero c1008
Each item that follows carries a reported pCC50.

COMPOUND: COc1ccc(-c2sc(NC(=O)C(C)(C)C)nc2C)cc1S(=O)(=O)Nc1ccc(O)cc1
TESTED_ON: Vero C1008
pCC50: 5.25
//
COMPOUND: CC[C@H](C)C(=O)O[C@H]1C[C@@H](C)C=C2C=C[C@H](C)[C@H](CC[C@@H]3C[C@@H](O)CC(=O)O3)[C@H]21
TESTED_ON: Vero C1008
pCC50: 5.4
//
COMPOUND: O=C(O)c1ccc2c(c1)nc(Nc1cccc(Cl)c1)c1ccncc12
TESTED_ON: Vero C1008
pCC50: 5.5
//
COMPOUND: c1ccc(CNc2nc(NCc3ccccc3)c3ccccc3n2)cc1
TESTED_ON: Vero C1008
pCC50: 5.19
//
COMPOUND: C[C@@H]1CN(CCCn2c3ccccc3c3ccccc32)C[C@H](C)N1
TESTED_ON: Vero C1008
pCC50: 2.24
//
COMPOUND: O=c1[nH]c2ccccc2n1C1CCN(CCCC(c2ccc(F)cc2)c2ccc(F)cc2)CC1 [PIMOZIDE]
TESTED_ON: Vero C1008
pCC50: 6.13
//
COMPOUND: Cc1cc(Nc2cc(N)ncn2)c(=O)n2c1C(=O)NC21CCCCC1
TESTED_ON: Vero C1008
pCC50: 5.26

* * *

experiment: Cytotoxicity of compound against Vero E6 cells by MTT assay.; conditions: chlorocebus sabaeus, Vero E6 cells
The source made the active and inactive calls. The calls are words filed in the database; no cut-off is given here.
Each item that follows carries a reported CC50.
MEASUREMENT_TYPE: CC50

MOLECULE: C[C@H](CS)C(=O)N1CCC[C@H]1C(=O)O [CAPTOPRIL]
MEASUREMENT_TYPE: CC50
RESULT: ~1230 nM (inactive)
//
MOLECULE: CC(C)n1nc(-c2ccc3oc(N)nc3c2)c2c(N)ncnc21 [SAPANISERTIB]
MEASUREMENT_TYPE: CC50
RESULT: 1.24 nM
//
MOLECULE: COc1cc2c(c(OC)n1)[C@]1(O)[C@H](O)[C@H](CN(C)C)[C@@H](c3ccccc3)[C@]1(c1ccc(C#N)cc1)O2 [ZOTATIFIN]
MEASUREMENT_TYPE: CC50
RESULT: 5.12 nM (active)

* * *

test system: Vero C1008; experiment: Cytotoxicity of compound against Vero E6 cells by MTT assay.; settings: chlorocebus sabaeus, vero c1008

TEST_SMILES: N=C(N)c1ccc2cc(OC(=O)c3ccc(N=C(N)N)cc3)ccc2c1
TESTED_ON: Vero C1008
pCC50: ~ 2.44
--
TEST_SMILES: CCCN1CCC=C(c2cc(-c3ccc(C)cc3)no2)C1
TESTED_ON: Vero C1008
pCC50: ~ 2.928
